pIC50 by entry:
# targetSystem: HIV integrase (Human immunodeficiency virus type 1 group M subtype B)
# Construct: strand transfer reaction catalyzed by the recombinant integrase in vitro
# testDescription: HIV integrase assay: strand transfer catalyzed by recombinant integrase
# testConditions: strand transfer activity of recombinant integrase
Please treat pIC50 as minus the base-10 logarithm of the molar concentration.

Answered examples (4):
compound	targetSystem	pIC50
CC(=O)OC1C(O)C2=C(CCC3C2(C)CC(OC(=O)CCCCCCCCCCCCCCCO)C(OS(=O)(=O)O)C3(C)C)C2=CCC(C(C)CCC3(C(C)(C)O)CO3)C21C (centres unmarked)	HIV integrase (Human immunodeficiency virus type 1 group M subtype B)	4.85
C=C(CCC(C)C1CC=C2C3=C(C(O)C(OC(C)=O)C21C)C1(C)CC(OC(=O)CCC(=O)O)C(O)C(C)(C)C1CC3)C(C)C (centres unmarked)	HIV integrase (Human immunodeficiency virus type 1 group M subtype B)	4.17
C=C(CCC(C)C1CC=C2C3=C(C(O)C(OC(C)=O)C21C)C1(C)CC(O)C(OC(=O)CCC(=O)O)C(C)(C)C1CC3)C(C)C (centres unmarked)	HIV integrase (Human immunodeficiency virus type 1 group M subtype B)	4.80
C=C(CC[C@@H](C)[C@H]1CC=C2C3=C([C@@H](O)[C@H](OC(C)=O)C21C)C1(C)C[C@@H](OC(=O)CN)[C@H](OC(=O)CN)C(C)(C)[C@@H]1CC3)C(C)C (some centres unmarked)	HIV integrase (Human immunodeficiency virus type 1 group M subtype B)	5.30

Next:
Q: pIC50 lookup needed for C=C(CCC(C)C1CCC2C3=C(C(O)C(OC(C)=O)C21C)C1(C)CC(O)C(OS(=O)(=O)O)C(C)(C)C1CC3)C(C)C (centres unmarked) , thanks.
Result: 4.82
